- study_target: ErbB-3 receptor-Ig fusion (homodimer) (human, UniProt P21860 20-643; P21860 20-636)
- Sequence (P21860 other isoform, or with tags, fused parts or gaps): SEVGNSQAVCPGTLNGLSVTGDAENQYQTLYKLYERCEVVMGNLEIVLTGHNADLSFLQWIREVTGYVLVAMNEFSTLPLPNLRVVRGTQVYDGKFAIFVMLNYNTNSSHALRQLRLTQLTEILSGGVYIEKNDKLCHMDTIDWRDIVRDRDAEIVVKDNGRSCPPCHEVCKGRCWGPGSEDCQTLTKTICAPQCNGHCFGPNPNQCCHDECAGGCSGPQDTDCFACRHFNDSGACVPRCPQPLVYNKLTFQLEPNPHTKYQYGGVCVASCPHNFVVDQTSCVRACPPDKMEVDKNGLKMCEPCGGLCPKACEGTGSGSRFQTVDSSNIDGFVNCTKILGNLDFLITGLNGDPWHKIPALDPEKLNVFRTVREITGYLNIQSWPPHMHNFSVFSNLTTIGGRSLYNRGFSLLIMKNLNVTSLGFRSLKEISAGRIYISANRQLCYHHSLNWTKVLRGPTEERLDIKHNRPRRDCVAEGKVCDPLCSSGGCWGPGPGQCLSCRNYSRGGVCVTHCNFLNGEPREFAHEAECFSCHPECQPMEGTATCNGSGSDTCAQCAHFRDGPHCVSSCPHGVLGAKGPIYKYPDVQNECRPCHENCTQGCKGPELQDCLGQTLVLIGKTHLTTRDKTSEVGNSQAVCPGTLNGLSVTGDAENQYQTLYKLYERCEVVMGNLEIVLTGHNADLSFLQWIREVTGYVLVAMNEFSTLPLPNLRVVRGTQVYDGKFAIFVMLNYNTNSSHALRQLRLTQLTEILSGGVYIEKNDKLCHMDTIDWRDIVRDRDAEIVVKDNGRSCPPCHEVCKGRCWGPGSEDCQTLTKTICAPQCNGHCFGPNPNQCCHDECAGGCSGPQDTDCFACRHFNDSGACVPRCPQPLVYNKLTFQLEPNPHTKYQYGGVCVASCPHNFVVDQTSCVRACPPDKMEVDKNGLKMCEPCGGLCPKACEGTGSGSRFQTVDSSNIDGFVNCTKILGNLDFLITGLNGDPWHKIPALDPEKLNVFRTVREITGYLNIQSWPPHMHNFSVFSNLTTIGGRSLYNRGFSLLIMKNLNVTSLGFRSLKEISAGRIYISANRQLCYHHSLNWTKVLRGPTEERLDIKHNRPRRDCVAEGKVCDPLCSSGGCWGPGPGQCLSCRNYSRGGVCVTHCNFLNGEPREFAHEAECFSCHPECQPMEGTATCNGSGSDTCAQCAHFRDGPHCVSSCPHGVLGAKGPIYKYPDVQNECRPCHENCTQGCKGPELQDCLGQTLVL
- method_summary: phage ELISA, soluble ErbB-3-Ig as competitor
assay_readout: pEC50
To interpret pEC50, take it as minus log10 of a concentration measured in moles per litre.

INSERT INTO measurements (binder, value_measured) VALUES
  ('HRG-β1 177-244 F189A, phage-displayed (ligand) SHLVKCAEKEKTACVNGGECFMVKDLSNPSRYLCKCPNEFTGDRCQNYVMASFYKHLGIEFMEAEELY', 6.05);

# ---- query binder ----
Item under review: HRG-β1 177-244 F216A, phage-displayed (ligand, phage M13, range 247-end) SHLVKCAEKEKTFCVNGGECFMVKDLSNPSRYLCKCPNEATGDRCQNYVMASFYKHLGIEFMEAEELYGGSGGGSGSGDFDYEKMANANKGAMTENADENALQSDAKGKLDSVATDYGAAIDGFIGDVSGLANGNGATGDFAGSNSQMAQVGDGDNSPLMNNFRQYLPSLPQSVECRPFVFSAGKPYEFSIDCDKINLFRGVFAFLLYVATFMYVASTFANILRNKES . Reported pEC50?
6.30

Provenance of the data: patent US6387638
